- study.target: Histamine H2 receptor (Homo sapiens); further: assay procedure not described here
- Sequence (P25021 whole entry): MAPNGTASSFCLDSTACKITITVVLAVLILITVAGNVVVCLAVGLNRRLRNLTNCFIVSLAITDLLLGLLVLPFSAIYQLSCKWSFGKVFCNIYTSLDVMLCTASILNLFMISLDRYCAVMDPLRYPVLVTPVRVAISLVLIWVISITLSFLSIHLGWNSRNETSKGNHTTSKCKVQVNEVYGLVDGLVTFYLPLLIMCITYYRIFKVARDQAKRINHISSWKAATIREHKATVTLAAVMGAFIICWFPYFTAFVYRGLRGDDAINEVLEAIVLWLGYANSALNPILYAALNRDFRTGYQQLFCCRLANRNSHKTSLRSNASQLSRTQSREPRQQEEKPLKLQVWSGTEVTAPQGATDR
- Assay type: functional, cell-based
The following compounds are shown together with reported AC50 values.

{"columns": ["compound", "AC50"],
 "data": [
  ["Cc1cccc(C(C)c2cnc[nH]2)c1C (stereo unspecified)", "> 30 µM"],
  ["CC(CC(c1ccccc1)c1ccccc1)NC(C)(C)C (stereo unspecified)", "> 30 µM"],
  ["Nc1nc(N)nc(-c2cc(Cl)ccc2Cl)n1", "> 30 µM"],
  ["Cn1c(=O)c2c(ncn2CC2OCCO2)n(C)c1=O", "> 30 µM"],
  ["Cn1nnc2c(C(N)=O)ncn2c1=O [TEMOZOLOMIDE]", "> 10 µM"],
  ["C[C@@H]1O[C@@H](O[C@@H]2C=C3CC[C@@H]4[C@H](CC[C@]5(C)[C@@H](c6ccc(=O)oc6)CC[C@]45O)[C@@]3(C)CC2)[C@H](O)[C@H](O)[C@H]1O", "> 30 µM"],
  ["COc1cc2nc(N(C)CCCNC(=O)C3CCCO3)nc(N)c2cc1OC (stereo unspecified)", "> 30 µM"],
  ["Cc1cccc(Nc2ccccc2C(=O)O)c1C", "> 10 µM"],
  ["CCCC(C)C1(CC)C(=O)NC(=O)NC1=O (stereo unspecified)", "> 30 µM"],
  ["O=C(Cc1ccc(-c2ccccc2)cc1)Nc1ccccn1 [DIFENPIRAMIDE]", "> 30 µM"],
  ["CCCN(CCC)C(=O)C(CCC(=O)O)NC(=O)c1ccccc1 (stereo unspecified) [PROGLUMIDE]", "> 30 µM"],
  ["CN(C)CCC(c1ccc(Cl)cc1)c1ccccn1 (stereo unspecified)", "> 10 µM"],
  ["CC[C@@H](C(N)=O)N1CCCC1=O", "> 30 µM"],
  ["CC1(C)NC(=O)N(c2ccc([N+](=O)[O-])c(C(F)(F)F)c2)C1=O [NILUTAMIDE]", "> 30 µM"],
  ["CCOC(=O)OC(C)OC1=C(C(=O)Nc2ccccn2)N(C)S(=O)(=O)c2ccccc21 (stereo unspecified)", "> 30 µM"],
  ["O=C(O)/C=C/c1ccc(Cn2ccnc2)cc1", "> 30 µM"]
]}

Data credit: ChEMBL document CHEMBL5291721
